Give IC50 for every item shown.
Molecular target: angiotensin II receptor (Bos taurus)
Construct: partially purified membrane fractions of bovine AGC
Sequence (P25104 whole entry): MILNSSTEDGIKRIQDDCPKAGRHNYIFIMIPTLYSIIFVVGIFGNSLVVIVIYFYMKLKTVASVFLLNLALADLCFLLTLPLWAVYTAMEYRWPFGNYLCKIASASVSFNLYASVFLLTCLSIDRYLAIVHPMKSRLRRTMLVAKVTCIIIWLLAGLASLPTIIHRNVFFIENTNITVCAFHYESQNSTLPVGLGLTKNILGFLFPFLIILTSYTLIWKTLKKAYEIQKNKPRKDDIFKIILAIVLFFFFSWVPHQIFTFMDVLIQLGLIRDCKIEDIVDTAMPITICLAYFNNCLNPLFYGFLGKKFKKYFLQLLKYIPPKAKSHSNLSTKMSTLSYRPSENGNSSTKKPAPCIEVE
Assay: Interaction with the angiotensin II receptor in membrane fractions of the adrenal gland cortex (bovine), 3H-angiotensin II binding
Details: bovine adrenal gland cortex membranes; 3H-angiotensin II 3-5 nM; 60 min, room temperature; read-out: IC50 (50% inhibition of the specific binding of the radioligand)
One number for each entry, in nM.

[
  {
    "compound": "Cc1cc(C)c2nc(C3CC3)n(Cc3ccc(C(C(=O)O)C(C)C)cc3)c2n1 (centres unmarked) [Example 2]",
    "IC50, nM": 210
  }
]

Note: attention shifts to another entry.
# lookup: IC50 of Cc1ccc(S(=O)(=O)NC(=O)Cc2ccc(Cn3c(C4CC4)nc4c(C)cc(C)nc43)cc2)cc1 [Example 9]
16
